System: Trichophyton mentagrophytes
protocolText: Antifungal activity against Trichophyton mentagrophytes after 16 to 18 hrs by serial dilution method
Format: functional
assayConditions: Trichophyton mentagrophytes
measurementType: MIC (µg/mL)

INSERT INTO results (smilesstring, targetofassay, measurementtype, resultvalue) VALUES
  ('Cc1ccc(OCc2ccccc2-c2nnc(SCc3ccc(Cl)cc3)o2)cc1', 'Trichophyton mentagrophytes', 'MIC', 12.5),
  ('Cc1ccc(OCc2ccccc2-c2nnc(SCc3ccc(Cl)cc3Cl)o2)cc1', 'Trichophyton mentagrophytes', 'MIC', 6.25);

1. Cc1ccc(OCc2ccccc2-c2nn(CNc3cccc(C(F)(F)F)c3)c(=S)o2)cc1
2. Clc1ccc(OCc2ccccc2-c2nnc(-c3cccc4ncccc34)o2)cc1
Field: entry with larger MIC (options 1 / 2 ). Give the label of your selection.
2

a. Cc1ccc(OCc2ccccc2-c2nnc(-c3ccc(Cl)cc3)o2)cc1
b. Cc1ccc(OCc2ccccc2-c2nn(CN3CCOCC3)c(=S)o2)cc1
Hi! Which is lower in terms of MIC, the first one a or the second one b ? Give the label of your selection.
b

P. CCSc1nnc(-c2ccccc2COc2ccc(Cl)cc2)o1
Q. Cc1cccc(OCc2ccccc2-c2nnc(SCc3ccc(Cl)cc3)o2)c1
Field: entry with larger MIC (options P / Q ). Give the label of your selection.
P
(P: 25 µg/mL, Q: 12.5 µg/mL)

----------
Test system: Pseudomonas aeruginosa
protocolText: Antibacterial activity against Pseudomonas aeruginosa after 16 to 18 hrs by serial dilution method
Assay type: functional
assayConditions: Pseudomonas aeruginosa
measurementType: MIC (µg/mL)

The examples below pair each entry with its known result.
INSERT INTO measurements (smilesstring, targetofassay, resultvalue) VALUES
  ('Clc1ccc(OCc2ccccc2-c2nnc(-c3ccccc3)o2)cc1', 'Pseudomonas aeruginosa', 25),
  ('Cc1ccccc1OCc1ccccc1-c1nnc(SCc2ccc(Cl)cc2Cl)o1', 'Pseudomonas aeruginosa', 6.25),
  ('CCSc1nnc(-c2ccccc2COc2ccccc2C)o1', 'Pseudomonas aeruginosa', 25),
  ('Cc1cccc(OCc2ccccc2-c2nn(CNc3cccc(C(F)(F)F)c3)c(=S)o2)c1', 'Pseudomonas aeruginosa', 6.25),
  ('COc1cc(-c2nnc(-c3ccccc3COc3ccc(Cl)cc3)o2)cc(OC)c1OC', 'Pseudomonas aeruginosa', 6.25);

I. CCSc1nnc(-c2ccccc2COc2ccc(C)cc2)o1
II. Cc1ccccc1OCc1ccccc1-c1nn(CNc2cccc(C(F)(F)F)c2)c(=S)o1
Field: entry with larger MIC (options I / II ). Give the label of your selection.
I

P. Cc1ccccc1OCc1ccccc1-c1nnc(-c2cccnc2Cl)o1
Q. Cc1ccc(OCc2ccccc2-c2nnc(-c3cccc(Br)c3)o2)cc1
Field: entry with larger MIC (options P / Q ). Give the label of your selection.
Q

I. Cc1ccc(OCc2ccccc2-c2nnc(SCc3ccc(Cl)cc3)o2)cc1
II. COc1cc(-c2nnc(-c3ccccc3COc3ccc(C)cc3)o2)cc(OC)c1OC
Field: entry with larger MIC (options I / II ). Give the label of your selection.
I

----------
System: Aspergillus fumigatus
protocolText: Antifungal activity against Aspergillus fumigatus after 16 to 18 hrs by serial dilution method
Assay type: functional
assayConditions: Aspergillus fumigatus
measurementType: MIC (µg/mL)

INSERT INTO assay_data (smilesstring, targetofassay, measurementtype, unitsymbol, resultvalue) VALUES
  ('Cc1ccc(OCc2ccccc2-c2nnc(-c3ccc(Cl)cc3)o2)cc1', 'Aspergillus fumigatus', 'MIC', 'µg/mL', 25),
  ('O=C(c1cc(Cl)ccc1NCn1nc(-c2ccccc2COc2ccc(Cl)cc2)oc1=S)C(F)(F)F', 'Aspergillus fumigatus', 'MIC', 'µg/mL', 25),
  ('Cc1ccc(OCc2ccccc2-c2nn(CNc3cc(C)ccc3Cl)c(=S)o2)cc1', 'Aspergillus fumigatus', 'MIC', 'µg/mL', 25);
